biological target: CDK8/Cyclin C (Homo sapiens (Human)); test: CDK8/Cyclin C binding assay (LanthaScreen Eu-Kinase Binding Assay); conditions: binding assay
Sequence (P49336 whole entry): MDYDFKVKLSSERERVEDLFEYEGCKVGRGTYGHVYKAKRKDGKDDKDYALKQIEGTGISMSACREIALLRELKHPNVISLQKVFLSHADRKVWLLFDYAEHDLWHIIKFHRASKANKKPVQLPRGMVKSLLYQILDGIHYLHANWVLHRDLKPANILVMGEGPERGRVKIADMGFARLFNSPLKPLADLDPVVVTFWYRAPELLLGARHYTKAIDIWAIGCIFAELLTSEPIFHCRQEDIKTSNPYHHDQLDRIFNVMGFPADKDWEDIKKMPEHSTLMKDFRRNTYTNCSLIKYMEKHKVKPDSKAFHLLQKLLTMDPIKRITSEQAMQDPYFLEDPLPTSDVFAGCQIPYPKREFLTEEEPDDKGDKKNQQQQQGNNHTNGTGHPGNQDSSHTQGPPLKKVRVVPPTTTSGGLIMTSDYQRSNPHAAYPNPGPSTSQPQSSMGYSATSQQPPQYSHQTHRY
Sequence (P24863 whole entry partner): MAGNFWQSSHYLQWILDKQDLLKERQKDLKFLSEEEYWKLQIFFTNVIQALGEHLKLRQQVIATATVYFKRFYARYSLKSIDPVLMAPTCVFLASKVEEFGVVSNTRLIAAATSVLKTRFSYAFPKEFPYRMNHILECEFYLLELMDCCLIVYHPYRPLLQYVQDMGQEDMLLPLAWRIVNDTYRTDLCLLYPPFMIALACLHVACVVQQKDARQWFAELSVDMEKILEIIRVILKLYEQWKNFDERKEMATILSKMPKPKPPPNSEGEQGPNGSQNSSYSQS
We label by threshold. Values of IC50 strictly beneath 10 nM are condition met. Values of 10 nM and up are condition not met.

Observe how each entry below is paired with its result.
- molecule: "COC(=O)c1[nH]c2c(c1-c1ccccc1)C(C)(C)Oc1cnccc1-2 [LXIX]"
  group: "condition not met"
- molecule: "Cn1c(C(N)=O)cc2c1-c1ccncc1OC21CCOCC1 [Example 81]"
  group: "condition met"
- molecule: "CC1(C)Oc2cnccc2-c2[nH]c(C(N)=O)cc21 [Example 1]"
  group: "condition met"
- molecule: "COc1ccc(-c2c(C(N)=O)[nH]c3c2C(C)(C)Oc2cnccc2-3)cc1 [Example 51]"
  group: "condition not met"
- molecule: "NC(=O)c1cc2c([nH]1)-c1ccncc1OC21CCN(CC(F)(F)F)CC1 [Example 18]"
  group: "condition not met"

Request: Does the reported IC50 of CC1(C)Oc2cnccc2-c2[nH]c(C(N)=O)c(-c3cccc(S(N)(=O)=O)c3)c21 [Example 40] stay below 10 nM?
Response: condition not met

Request: What would you report for CC1(C)Oc2cnccc2-c2c1cc(C(N)=O)n2CC(F)(F)F [Example 53] ?
Response: condition not met

Request: What would you report for Cn1c(C(N)=O)cc2c1-c1ccncc1OC21CCCCC1 [Example 83] ?
Response: condition met

Request: What would you report for CC1(C)Oc2cncc(Cl)c2-c2[nH]c(C(=O)O)cc21 [Example 35] ?
Response: condition not met
